These measurements were taken from patent US20260234115A1.

We begin with a simple list: items and their reported Organ Mean Total Flux Liver.
- System: mouse organs
- experiment: In vivo activity screening in mice: organ mean total flux (p/s) of luciferase activity after injection of F2 LNP pools (Table 6, FIG. 7A-7C)
- condition set: Mouse 3, dose 1.0 mg/kg, luciferase mRNA
Marks after values point to notes of the source that are not given here.

{"molecule": "CCCCCCC(CCC(=O)OCC(COC(=O)CCCCCOC(=O)C(CCCC)CCCCCC)(COC(=O)CCCCCOC(=O)C(CCCC)CCCCCC)COC(=O)CCCCCOC(=O)C(CCCC)CCCCCC)OC(=O)NCCN1CCCC1 (stereo not drawn)", "Organ Mean Total Flux Liver": "4527 p/s (×10^6)"}
{"molecule": "CCCCCCC(CCC(=O)OCC(COC(=O)CCCCOC(=O)C(CCCC)CCCCCC)(COC(=O)CCCCOC(=O)C(CCCC)CCCCCC)COC(=O)CCCCOC(=O)C(CCCC)CCCCCC)OC(=O)NCCN1CCCC1 (stereo not drawn)", "Organ Mean Total Flux Liver": "15800 p/s (×10^6)"}
{"molecule": "CCCCCCC(CCCC)COC(=O)CCCCCC(=O)OCC(COC(=O)CCCCCC(=O)OCC(CCCC)CCCCCC)(COC(=O)CCCCCC(=O)OCC(CCCC)CCCCCC)COC(=O)CCC(CCCCCC)OC(=O)NCCN1CCCC1 (stereo not drawn)", "Organ Mean Total Flux Liver": "15467 p/s (×10^6)"}

----------
- Test system: mouse organs
- experiment: In vivo activity screening in mice: organ mean total flux (p/s) of luciferase activity after injection of F2 LNP pools (Table 6, FIG. 7A-7C)
- condition set: Mouse 12, dose 0.5 mg/kg, luciferase mRNA
Marks after values point to notes of the source that are not given here.
quantity measured: Organ Mean Total Flux Lung

{"compound": "CCCCC/C=C\\CCOC(=O)CCCCC(=O)OCC(COC(=O)CCCCC(=O)OCC/C=C\\CCCCC)(COC(=O)CCC(CCCCCC)OC(=O)NCCN1CCCC1)COC(=O)CC12CC(C1)C2 (centres unmarked) [Compound 91]", "quantity measured": "Organ Mean Total Flux Lung", "assay value": "26.3 p/s (×10^6)"}
{"compound": "CCCCC/C=C\\CCOC(=O)CCCCC(=O)OCC(COC(=O)CCCCC(=O)OCC/C=C\\CCCCC)(COC(=O)CCC(CCCCCC)OC(=O)NCCN1CCCC1)COC(=O)C1(C2CCCCC2)CCCCC1 (centres unmarked) [Compound 96]", "quantity measured": "Organ Mean Total Flux Lung", "assay value": "9.0 p/s (×10^6)"}
{"compound": "CCCCC/C=C\\CCOC(=O)CCCCC(=O)OCC(COC(=O)CCCCC(=O)OCC/C=C\\CCCCC)(COC(=O)CCCCC(=O)OCC/C=C\\CCCCC)COC(=O)CCC(CCCCCC)OC(=O)NCCN1CCCC1 (centres unmarked) [Compound 13]", "quantity measured": "Organ Mean Total Flux Lung", "assay value": "16.7 p/s (×10^6)"}
{"compound": "CCCCC/C=C\\CCOC(=O)CCCCC(=O)OCC(COC(=O)CCCCC(=O)OCC/C=C\\CCCCC)(COC(=O)CCC(CCCCCC)OC(=O)NCCN1CCCC1)COC(=O)C1CC2C(C1)C2(F)F (centres unmarked) [Compound 81]", "quantity measured": "Organ Mean Total Flux Lung", "assay value": "12.1 p/s (×10^6)"}
{"compound": "CCCCC/C=C\\C/C=C\\CCCCCCCCC(CCCCCCCC/C=C\\C/C=C\\CCCCC)OC(=O)CCCN(C)C [MC3, reference compound]", "quantity measured": "Organ Mean Total Flux Lung", "assay value": "13.7 p/s (×10^6)"}

----------
- experiment: Dynamic light scattering: LNP particle size and PDI
- Format: physicochemical
- condition set: LNP, Formulation F1, N/P 6
We begin with a simple list: items and their reported Size (nm) N/P:6.
quantity measured: Size (nm) N/P:6

{"compound": "CCCCC/C=C\\CCOC(=O)CCCCCCC(=O)OCC(COC(=O)CCCCCCC(=O)OCC/C=C\\CCCCC)(COC(=O)CCC(CCCCCC)OC(=O)NCCN1CCCC1)COC(=O)CC12CC3CC(CC(C3)C1)C2 (stereo not shown) [Compound 11]", "assay value": 77}
{"compound": "CCCCCCCC/C=C\\CCCCCCCC(=O)OCC(COC(=O)CCCCCCC/C=C\\CCCCCCCC)(COC(=O)CCCCCCC/C=C\\CCCCCCCC)COC(=O)CCC(CCCCCC)OC(=O)NCCN1CCCC1 (stereo not shown) [Compound 1]", "assay value": 74}
{"compound": "CCCCC/C=C\\CCOC(=O)CCCCCC(=O)OCC(COC(=O)CCCCCC(=O)OCC/C=C\\CCCCC)(COC(=O)CCC(CCCCCC)OC(=O)NCCN1CCCC1)COC(=O)CCC(OCCCCCCCC)OCCCCCCCC (stereo not shown) [Compound 9]", "assay value": 68}
{"compound": "CCCCC/C=C\\C/C=C\\CCCCCCCC(=O)OCC(COC(=O)CCCCCCC/C=C\\C/C=C\\CCCCC)(COC(=O)CCC(CCCCCC)OC(=O)NCCN1CCCC1)COC(=O)CC12CC3CC(CC(C3)C1)C2 (stereo not shown) [Compound 5]", "assay value": 70}

----------
We begin with a simple list: items and their reported Size (nm) N/P:6.
- experiment: Dynamic light scattering: LNP particle size and PDI
- Type: physicochemical
- condition set: LNP, Formulation F3, N/P 6
quantity measured: Size (nm) N/P:6

{"compound": "CCCCC/C=C\\CCOC(=O)CCCCC(=O)OCC(COC(=O)CCCCC(=O)OCC/C=C\\CCCCC)(COC(=O)CCC(CCCCCC)OC(=O)NCCN1CCCC1)COC(=O)CC12CC3CC(CC(C3)C1)C2 (centres unmarked) [Compound 14]", "units text": "nm", "assay value": 83}
{"compound": "CCCCCCCC/C=C\\CCCCCCCC(=O)OCC(COC(=O)CCCCCCC/C=C\\CCCCCCCC)(COC(=O)CCC(CCCCCC)OC(=O)NCCN1CCCC1)COC(=O)CCC(OCCCCCCCC)OCCCCCCCC (centres unmarked) [Compound 4]", "units text": "nm", "assay value": 108}
{"compound": "CCCCC/C=C\\C/C=C\\CCCCCCCC(=O)OCC(COC(=O)CCCCCCC/C=C\\C/C=C\\CCCCC)(COC(=O)CCC(CCCCCC)OC(=O)NCCN1CCCC1)COC(=O)CC12CC3CC(CC(C3)C1)C2 (centres unmarked) [Compound 5]", "units text": "nm", "assay value": 97}
{"compound": "CCCCC/C=C\\CCOC(=O)CCCCCC(=O)OCC(COC(=O)CCCCCCOC(=O)C(CCCC)CCCCCC)(COC(=O)CCCCCC(=O)OCC/C=C\\CCCCC)COC(=O)CCC(CCCCCC)OC(=O)NCCN1CCCC1 (centres unmarked) [Compound 16]", "units text": "nm", "assay value": 92}
{"compound": "CCCCC/C=C\\CCOC(=O)CCCCCCC(=O)OCC(COC(=O)CCCCCCC(=O)OCC/C=C\\CCCCC)(COC(=O)CCC(CCCCCC)OC(=O)NCCN1CCCC1)COC(=O)CCC(OCCCCCCCC)OCCCCCCCC (centres unmarked) [Compound 12]", "units text": "nm", "assay value": 93}

----------
We begin with a simple list: items and their reported Organ Mean Total Flux Kidney.
- Test system: mouse organs
- experiment: In vivo activity screening in mice: organ mean total flux (p/s) of luciferase activity after injection of F2 LNP pools (Table 6, FIG. 7A-7C)
- condition set: Mouse 9, dose 0.5 mg/kg, luciferase mRNA
Marks after values point to notes of the source that are not given here.

{"molecule": "CCCCC/C=C\\CCOC(=O)CCCCC(=O)OCC(COC(=O)CCCCC(=O)OCC/C=C\\CCCCC)(COC(=O)CCC(CCCCCCCC)OC(=O)NCCN1CCCC1)COC(=O)CC12CC3CC(CC(C3)C1)C2 (centres unmarked)", "Organ Mean Total Flux Kidney": "1.8 p/s (×10^6)"}
{"molecule": "CCCCC/C=C\\CCOC(=O)CCCCC(=O)OCC(COC(=O)CCCCC(=O)OCC/C=C\\CCCCC)(COC(=O)CCC(CCCCCC)OC(=O)C12CCN(CC1)CC2)COC(=O)CC12CC3CC(CC(C3)C1)C2 (centres unmarked)", "Organ Mean Total Flux Kidney": "0.3 p/s (×10^6)"}
{"molecule": "CCCCC/C=C\\C/C=C\\CCCCCCCCC(CCCCCCCC/C=C\\C/C=C\\CCCCC)OC(=O)CCCN(C)C [MC3, reference compound]", "Organ Mean Total Flux Kidney": "2.1 p/s (×10^6)"}
{"molecule": "CCCCC/C=C\\CCOC(=O)CCCCC(=O)OCC(COC(=O)CCCCC(=O)OCC/C=C\\CCCCC)(COC(=O)CCC(CCCCCC)OC(=O)NCCN1CCCC1)COC(=O)C12CC3CC(CC(C3)C1)C2 (centres unmarked)", "Organ Mean Total Flux Kidney": "2.4 p/s (×10^6)"}
{"molecule": "CCCCC/C=C\\CCOC(=O)CCCCC(=O)OCC(COC(=O)CCCCC(=O)OCC/C=C\\CCCCC)(COC(=O)CCC(CCCCCC)OC(=O)NCCN1CCCC1)COC(=O)CC12CC3CC(CC(C3)C1)C2 (centres unmarked)", "Organ Mean Total Flux Kidney": "2.5 p/s (×10^6)"}
